Measured inhibition accompanies every entry in the list below.
- study system: NADPH oxidase 4 (Homo sapiens)
- protocol notes: Inhibition of NOX4 in human ARPE19 cells assessed as suppression of 4-HNE-induced superoxide production at 10 uM pre-incubated for 1 hr before 4-HNE addition for 1 hr by lucigenin chemiluminescence assay
- Assay type: cell-based
Report the value in % with no unit label.

These recorded examples may help you get a feel for the data.
substance smiles	unit spec	inhibition
CCCNC(=O)Nc1nc(C)c(O)c(C)c1C	%	9.4
Cc1nc(NC(=O)Nc2ccc(C(C)C)cc2)c(C)c(C)c1O	%	-1.3
Cc1nc(NC(=S)Nc2ccccc2)c(C)c(C)c1O	%	2.3
Cc1nc(NC(=S)Nc2ccc(C(F)(F)F)cc2)c(C)c(C)c1O	%	30.5
Cc1ccc(NC(=O)Nc2nc(C)c(O)c(C)c2C)cc1	%	6.2

The compound Cc1nc(NC(=S)Nc2ccc(Cl)c(Cl)c2)c(C)c(C)c1O showed inhibition equal to 19

Looking up O=C1O[C@H]([C@@H](O)CO)C(O)=C1O , I see its inhibition listed as 3.4

In plain terms, Cc1nc(NC(=S)NC(=O)c2ccccc2)c(C)c(C)c1O has a documented inhibition of 68.7

Entry Cc1nc(NC(=S)Nc2cccc(C(F)(F)F)c2)c(C)c(C)c1O ; inhibition = 20.1

====

The entries below are paired with their reported Activity.
- study system: NADPH oxidase 4 (Homo sapiens)
- protocol notes: Inhibition of NOX4 in human ARPE19 cells assessed as protection against 4-HNE-induced cell death by measuring cell viability recovery at 10 uM incubated for 24 hrs by MTT assay
- Type: cell-based
Write the value in % as a bare number.

Previously resolved entries follow.
substance smiles	Activity (%)
Cc1nc(NC(=O)NC(=O)c2ccccc2)c(C)c(C)c1O	1.5
Cc1cccc(C(C)(C)C)c1NC(=O)Nc1nc(C)c(O)c(C)c1C	12.8
Cc1nc(NC(=S)NC(=O)c2ccccc2)c(C)c(C)c1O	63.1
c1ccc(Cn2nnc3c(Sc4nc5ccccc5o4)ncnc32)cc1	79.4
Cc1nc(NC(=S)NC(C)C)c(C)c(C)c1O	14.7

Consider Cc1ccc(S(=O)(=O)NC(=O)Nc2nc(C)c(O)c(C)c2C)cc1 . Its measured Activity is 32.5

Measured Activity, COc1ccc(NC(=O)Nc2nc(C)c(O)c(C)c2C)cc1 : 10.8

====

- study system: UniProtKB Q9NPH5
- protocol notes: Inhibition of NOX4 in human ARPE19 cells assessed as protection against 4-HNE-induced cell death by measuring cell viability recovery at 10 uM incubated for 24 hrs by MTT assay
- Assay type: cell-based
endpoint label: Activity
Quote the value and follow it with the unit of measurement.

Answered cases to consult:
substance smiles	study system	Activity
Cc1nc(NC(=S)Nc2ccc(Cl)cc2)c(C)c(C)c1O	UniProtKB Q9NPH5	12.8%
Cc1ccc(NC(=S)Nc2nc(C)c(O)c(C)c2C)cc1	UniProtKB Q9NPH5	54%
Cc1nc(NC(=S)Nc2ccc(Br)cc2)c(C)c(C)c1O	UniProtKB Q9NPH5	33.5%
CCCNC(=O)Nc1nc(C)c(O)c(C)c1C	UniProtKB Q9NPH5	12.5%
Cc1nc(NC(=O)NCc2ccccc2)c(C)c(C)c1O	UniProtKB Q9NPH5	10.5%

# compound Cc1nc(NC(=O)Nc2ccc([N+](=O)[O-])cc2)c(C)c(C)c1O ; its Activity = 13.9%

Sure, the documented Activity for Cc1nc(NC(=O)Nc2ccc(OC(F)(F)F)cc2)c(C)c(C)c1O is 58.4%

Activity measured on Cc1nc(NC(=S)Nc2ccc(C(F)(F)F)cc2)c(C)c(C)c1O = 40.4%

Per the records, this compound ( CCCCNC(=S)Nc1nc(C)c(O)c(C)c1C ) has Activity equal to 85.1%

====

The molecules listed here are annotated with their inhibition.
- study system: NADPH oxidase 4 (Homo sapiens) (UniProt Q9NPH5)
- Sequence (whole entry): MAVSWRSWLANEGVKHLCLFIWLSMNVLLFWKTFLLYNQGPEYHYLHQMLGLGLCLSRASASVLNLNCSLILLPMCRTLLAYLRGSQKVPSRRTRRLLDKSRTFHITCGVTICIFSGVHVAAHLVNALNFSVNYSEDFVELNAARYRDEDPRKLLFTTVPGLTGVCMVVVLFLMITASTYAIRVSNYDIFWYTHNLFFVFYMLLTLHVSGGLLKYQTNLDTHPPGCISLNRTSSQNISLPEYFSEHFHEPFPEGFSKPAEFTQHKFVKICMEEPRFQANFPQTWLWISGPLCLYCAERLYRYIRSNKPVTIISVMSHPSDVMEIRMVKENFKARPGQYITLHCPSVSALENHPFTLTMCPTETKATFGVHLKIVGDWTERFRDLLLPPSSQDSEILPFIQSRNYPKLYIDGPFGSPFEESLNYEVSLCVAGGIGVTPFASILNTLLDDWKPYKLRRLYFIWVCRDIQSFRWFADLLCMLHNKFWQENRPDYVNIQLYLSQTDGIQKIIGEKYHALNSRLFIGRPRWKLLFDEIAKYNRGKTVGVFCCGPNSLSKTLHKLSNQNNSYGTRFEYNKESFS
- protocol notes: Inhibition of NOX4 in human ARPE19 cells assessed as suppression of 4-HNE-induced superoxide production at 10 uM pre-incubated for 1 hr before 4-HNE addition for 1 hr by lucigenin chemiluminescence assay
- Assay type: cell-based
Report the figure along with its unit, number first.

For orientation, consider the following solved cases.
substance smiles	study system	inhibition
Cc1nc(NC(=S)Nc2ccc([N+](=O)[O-])cc2)c(C)c(C)c1O	NADPH oxidase 4 (Homo sapiens) (UniProt Q9NPH5)	71.8%
Cc1ccc(S(=O)(=O)NC(=O)Nc2nc(C)c(O)c(C)c2C)cc1	NADPH oxidase 4 (Homo sapiens) (UniProt Q9NPH5)	28.6%
Cc1nc(NC(=O)Nc2ccc(C(F)(F)F)cc2)c(C)c(C)c1O	NADPH oxidase 4 (Homo sapiens) (UniProt Q9NPH5)	41.3%
Cc1nc(NC(=O)NC(=O)c2ccccc2)c(C)c(C)c1O	NADPH oxidase 4 (Homo sapiens) (UniProt Q9NPH5)	8.8%
CCNC(=S)Nc1nc(C)c(O)c(C)c1C	NADPH oxidase 4 (Homo sapiens) (UniProt Q9NPH5)	36.7%
Cc1ccc(NC(=S)Nc2nc(C)c(O)c(C)c2C)cc1	NADPH oxidase 4 (Homo sapiens) (UniProt Q9NPH5)	41.3%

Noted for c1ccc(Cn2nnc3c(Sc4nc5ccccc5o4)ncnc32)cc1 : its inhibition reads 78.7%

The molecule listed as CCCCCCNC(=S)Nc1nc(C)c(O)c(C)c1C shows inhibition equal to 17.9%

Cc1nc(NC(=S)Nc2ccc(Cl)cc2)c(C)c(C)c1O yielded inhibition of 13%

Consider Cc1nc(NC(=S)NC(C)C)c(C)c(C)c1O . Its measured inhibition is 13.9%

inhibition recorded for this molecule, COc1ccc(NC(=O)Nc2nc(C)c(O)c(C)c2C)cc1 , is 5.8%

GET /value?item= CCCCCCCCNC(=S)Nc1nc(C)c(O)c(C)c1C &field=inhibition returns 40.7%

According to the records, this molecule Cc1nc(NC(=S)NC2CCCCC2)c(C)c(C)c1O displays inhibition of 61.9%

// inhibition lookup, molecule = Cc1nc(NC(=O)NCc2ccccc2)c(C)c(C)c1O , result: 4.6%

Value of measured inhibition for the entry Cc1nc(NC(=O)Nc2ccc([N+](=O)[O-])cc2)c(C)c(C)c1O : 8.3%

For Cc1nc(NC(=O)Nc2cccc3ccccc23)c(C)c(C)c1O the molecule record lists inhibition as 2.4%

====

- study system: NADPH oxidase 4 (Homo sapiens) (UniProt Q9NPH5)
- protocol notes: Inhibition of NOX4 in human ARPE19 cells assessed as protection against 4-HNE-induced cell death by measuring cell viability recovery at 10 uM incubated for 24 hrs by MTT assay
- Format: cell-based
Activity: recorded values
State just the number; it will be interpreted in %.

substance smiles	assay value
CCCCCCNC(=S)Nc1nc(C)c(O)c(C)c1C	22.8
COc1ccc(NC(=S)Nc2nc(C)c(O)c(C)c2C)cc1	23.2
Cc1nc(NC(=O)Nc2cccc3ccccc23)c(C)c(C)c1O	7.3
Cc1nc(NC(=O)Nc2ccc(Cl)cc2)c(C)c(C)c1O	43.6
Cc1nc(NC(=O)Nc2ccc(Br)cc2)c(C)c(C)c1O	7.3

Activity for Cc1nc(NC(=O)Nc2ccc(C(C)C)cc2)c(C)c(C)c1O is -5.1

Record summary for CCNC(=S)Nc1nc(C)c(O)c(C)c1C : reported Activity = 44.9

Quick note, Activity for O=C1O[C@H]([C@@H](O)CO)C(O)=C1O landed at 8.2

Value of Activity reported for the compound CCCCCCCCNC(=S)Nc1nc(C)c(O)c(C)c1C is 45.9

Reported Activity of Cc1nc(NC(=S)Nc2ccccc2)c(C)c(C)c1O : 8.9

// Activity lookup, compound = Cc1nc(NC(=S)Nc2ccc([N+](=O)[O-])cc2)c(C)c(C)c1O , result: 77.7

So, Cc1nc(NC(=S)Nc2cccc(C(F)(F)F)c2)c(C)c(C)c1O ? Its Activity was 29.6

# compound Cc1nc(NC(=S)Nc2ccc(Cl)c(Cl)c2)c(C)c(C)c1O ; its Activity = 24.9

Measured values drawn from ChEMBL document CHEMBL4177728 for this set.
